Molecular target: T1, human CD8 alpha (CD8A) on primary human CD8+ T cells (human, UniProt P01732 22-235)
T1 construct: whole, on cells; also called hCD8A
T1 sequence (P01732 22-235): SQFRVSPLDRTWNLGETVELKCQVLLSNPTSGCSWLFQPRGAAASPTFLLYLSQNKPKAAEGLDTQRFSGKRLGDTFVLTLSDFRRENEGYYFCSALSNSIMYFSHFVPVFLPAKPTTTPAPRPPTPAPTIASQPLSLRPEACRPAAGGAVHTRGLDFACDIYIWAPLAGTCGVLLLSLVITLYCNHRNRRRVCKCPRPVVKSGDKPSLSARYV
Assay: flow cytometry, human CD8+ T cells, 0.2 uM FN3
Method: Binding of the 190 ELISA hits to human and cynomologous monkey primary CD8 T cells was assessed by flow cytometry. The FN3 domain molecules were diluted to 2 μM and 0.2 μM in PBS and incubated with human or cynomologous monkey CD8+ T cells in 96-well format. […] Cells were gating on live cells and median fluorescence intensity of the bound Centyrins (PE channel) was calculated using Cytobank software.
Experimental Readout: Human T-cell Binding 0.2 uM (MFI)
Give bare numbers, in MFI.

[
  {
    "Binder": "P283BR9P1363_A8 (designed binder, FN3 domain) LPAPKNLVVSRVTEDSARLSWVRSDTARFFDSFLIQYQESEKVGEAIVLTVPGSERSYDLTGLKPGTEYTVSIYGVDVKYDIDSRPISSNPLSAIFTT",
    "Reported Measurement": 2540
  }
]

Let us move to another entry and its Human T-cell Binding 0.2 uM (MFI).
Indicate its recorded Human T-cell Binding 0.2 uM (MFI); the binder in question is P282FR9P1361_F11 (designed binder, FN3 domain) LPAPKNLVVSRVTEDSARLSWTAPDAAFDSFGIWYREYGGSGEAIVLTVPGSERSYDLTGLKPGTEYDVAIWGVKGGVRSYPLSAIFTT
382
